# TARGET_UNDER_TEST: T1, cynomolgus monkey CD8A on primary cynomolgus monkey CD8+ T cells (cynomolgus monkey, UniProt P01732 23-235 (human entry))
# T1 construct: also called Cyno CD8alpha
# ASSAY_PROTOCOL: flow cytometry, cyno CD8+ T cells, 2 uM FN3
RECORDED_ENDPOINT: Cyno T-cell Binding 2 uM (MFI)

BINDER	OBS_VALUE
P282DR9P1359_D12 (designed binder, FN3 domain) LPAPKNLVVSRVTEDSARLSWTAPDAAFDSFRIAYPETATWGEAIVLTVPGSERSYDLTGLKPGTEYFVIIYGVKGGFESAPLSAIFTT	37100
P282AR9P1356_B9 (designed binder, FN3 domain) LPAPKNLVVSRVTEDSARLSWPEGDRPFFDSFLIQYQESEKVGEAIVLTVPGSERSYDLTGLKPGTEYTVSIYGVDVKWEGNRPVASNPLSAIFTT	36400
